B1: WW domain-binding protein 4, residues 8 to 43; numbered along this chain, O75554 (parent)
chain: QPKKFCDYCKCWIADNRPSVEFHERGKNHKENVAKR

Variants of: B1
Experiment: abundance fitness (aPCA) (normalised: wild type 0, dead -1); higher = more abundant; growth selection in yeast, the domain comes from the species named
Conditions: Homo sapiens
Class (required): determined from abundance fitness; valid ranges are low end (below -0.3), middle (-0.3 to below -0.1), high end (-0.1 or more)

## Input Class (by measured abundance fitness) for QPKKFCDYCKCWIADNRWSVEFHERGKNHKENVAKR
## Output low end

## Input Class (by measured abundance fitness) for QPKKFCDWCKCWIADNRPSVEFHERGKNHKENVAKR
## Output middle

## Input Class (by measured abundance fitness) for QPKKFCDYCKCWIADNRPSVEFHERGKRHKENVAKR
## Output high end

## Input Class (by measured abundance fitness) for QPKKGCDYCKCWIADNRPSVEFHERGKNHKENVAKR
## Output low end

## Input Class (by measured abundance fitness) for QPKKFCDYCKCTIADNRPSVEFHERGKNHKENVAKR
## Output high end

## Input Class (by measured abundance fitness) for QPKKKCDYCKCWIADNRPSVEFHERGKNHKENVAKR
## Output low end
